Data origin, for the record: paper PMC6130710

// pIC50 collected for rat intestinal α-glucosidase (sucrase) (Rattus norvegicus)
pIC50: −log10 of the molar value.
READOUT_KIND: pIC50

1) C=C(C)[C@@H]1CC[C@]2(C(=O)O)CC[C@]3(C)[C@H](CC[C@@H]4[C@@]5(C)CC[C@H](OC(=O)CCCCC)C(C)(C)[C@@H]5CC[C@]43C)[C@@H]12 [Compound 2e] : < 2.52
2) C=C(C)[C@@H]1CC[C@]2(C(=O)N(C(=O)NC3CCCCC3)C3CCCCC3)CC[C@]3(C)[C@H](CC[C@@H]4[C@@]5(C)CC[C@H](OC(=O)CCCC)C(C)(C)[C@@H]5CC[C@]43C)[C@@H]12 [Compound 2k] : < 2.52
3) C=C(C)[C@@H]1CC[C@]2(C)CC[C@]3(C)[C@H](CC[C@@H]4[C@@]5(C)CC[C@H](O)C(C)(C)[C@@H]5CC[C@]43C)[C@@H]12 [Compound 1, lupeol] : < 2.52

---

Catalogue of pIC50 values
# TARGET: α-Glucosidase (EC 3.2.1.20) from Saccharomyces cerevisiae (Baker's yeast) (Saccharomyces cerevisiae, UniProt P53341)
# Construct: purchased Sigma-Aldrich (St. Louis, MO)
# Sequence (P53341 whole entry): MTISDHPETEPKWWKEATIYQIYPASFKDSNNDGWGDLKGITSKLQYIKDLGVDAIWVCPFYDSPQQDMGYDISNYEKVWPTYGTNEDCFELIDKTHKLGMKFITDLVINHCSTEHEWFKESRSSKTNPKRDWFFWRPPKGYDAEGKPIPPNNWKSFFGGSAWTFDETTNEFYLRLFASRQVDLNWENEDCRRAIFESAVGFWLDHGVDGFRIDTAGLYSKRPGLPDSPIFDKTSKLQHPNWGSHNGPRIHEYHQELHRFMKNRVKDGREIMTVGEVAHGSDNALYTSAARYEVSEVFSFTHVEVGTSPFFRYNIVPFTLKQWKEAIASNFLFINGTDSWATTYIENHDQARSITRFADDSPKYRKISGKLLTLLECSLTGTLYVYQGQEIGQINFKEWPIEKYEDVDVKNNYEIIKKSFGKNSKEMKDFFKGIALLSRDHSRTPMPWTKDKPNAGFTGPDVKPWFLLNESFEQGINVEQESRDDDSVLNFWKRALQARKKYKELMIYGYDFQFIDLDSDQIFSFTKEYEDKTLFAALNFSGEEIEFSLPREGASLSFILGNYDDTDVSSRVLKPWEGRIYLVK
# TEST_NAME: biochemical
# CONDITION_NOTES: compounds, Table 2; read-out: IC50 Baker's yeast α-glucosidase
pIC50: −log10 of the molar value.
READOUT_KIND: pIC50

1) C=C(C)[C@@H]1CC[C@]2(C(=O)O)CC[C@]3(C)[C@H](CC[C@@H]4[C@@]5(C)CC[C@H](OC(=O)CCC)C(C)(C)[C@@H]5CC[C@]43C)[C@@H]12 : 3.80
2) C=C(C)[C@@H]1CC[C@]2(C(=O)O)CC[C@]3(C)[C@H](CC[C@@H]4[C@@]5(C)CC[C@H](OC(=O)CCCC)C(C)(C)[C@@H]5CC[C@]43C)[C@@H]12 : 3.57
3) C=C(C)[C@@H]1CC[C@]2(C(=O)O)CC[C@]3(C)[C@H](CC[C@@H]4[C@@]5(C)CC[C@H](OC(=O)CC)C(C)(C)[C@@H]5CC[C@]43C)[C@@H]12 : 4.36
4) C=C(C)[C@@H]1CC[C@]2(C(=O)N(C(=O)NC3CCCCC3)C3CCCCC3)CC[C@]3(C)[C@H](CC[C@@H]4[C@@]5(C)CC[C@H](OC(=O)CC)C(C)(C)[C@@H]5CC[C@]43C)[C@@H]12 : 3.43

---

# TEST_NAME: DPPH radical scavenging activity
# CONDITION_NOTES: compounds, Table 2
pIC50: −log10 of the molar value.
READOUT_KIND: pIC50

1. COc1cc([C@H]2c3c(cc(OC)c(O)c3OC)C[C@@H](CO)[C@@H]2CO[C@@H]2O[C@H](CO)[C@@H](O)[C@H](O)[C@H]2O)cc(OC)c1O : 2.42
2. C=C(C)[C@@H]1CC[C@]2(C)CC[C@]3(C)[C@H](CC[C@@H]4[C@@]5(C)CC[C@H](O)C(C)(C)[C@@H]5CC[C@]43C)[C@@H]12 : < 2.00
3. C=C(C)[C@@H]1CC[C@]2(C(=O)N(C(=O)NC3CCCCC3)C3CCCCC3)CC[C@]3(C)[C@H](CC[C@@H]4[C@@]5(C)CC[C@H](OC(=O)CC)C(C)(C)[C@@H]5CC[C@]43C)[C@@H]12 : < 2.00
4. C=C(C)[C@@H]1CC[C@]2(C(=O)N(C(=O)NC3CCCCC3)C3CCCCC3)CC[C@]3(C)[C@H](CC[C@@H]4[C@@]5(C)CC[C@H](OC(=O)CCCCC)C(C)(C)[C@@H]5CC[C@]43C)[C@@H]12 : < 2.00
5. C[C@@H]1O[C@@H](O[C@H]2[C@H](Oc3c(-c4ccc(O)cc4)oc4cc(O)cc(O)c4c3=O)O[C@@H](C)[C@H](O)[C@H]2O)[C@H](O)[C@H](O)[C@H]1O : 2.22
6. C=C(C)[C@@H]1CC[C@]2(C(=O)O)CC[C@]3(C)[C@H](CC[C@@H]4[C@@]5(C)CC[C@H](OC(C)=O)C(C)(C)[C@@H]5CC[C@]43C)[C@@H]12 : < 2.00
7. C=C(C)[C@@H]1CC[C@]2(C(=O)O)CC[C@]3(C)[C@H](CC[C@@H]4[C@@]5(C)CC[C@H](OC(=O)CC)C(C)(C)[C@@H]5CC[C@]43C)[C@@H]12 : < 2.00
8. O=C1O[C@H]([C@@H](O)CO)C(O)=C1O [Vitamin C, reference compound] : 3.80
9. C=C(C)[C@@H]1CC[C@]2(C(=O)O)CC[C@]3(C)[C@H](CC[C@@H]4[C@@]5(C)CC[C@H](OC(=O)c6ccccc6)C(C)(C)[C@@H]5CC[C@]43C)[C@@H]12 : < 2.00
10. C=C(C)[C@@H]1CC[C@]2(C(=O)O)CC[C@]3(C)[C@H](CC[C@@H]4[C@@]5(C)CC[C@H](OC(=O)CCCCC)C(C)(C)[C@@H]5CC[C@]43C)[C@@H]12 : < 2.00
11. C[C@@H]1O[C@@H](O[C@H]2[C@H](Oc3c(-c4ccc(O)c(O)c4)oc4cc(O)cc(O)c4c3=O)O[C@@H](C)[C@H](O)[C@H]2O)[C@H](O)[C@H](O)[C@H]1O : 4.37
12. C=C(C)[C@@H]1CC[C@]2(C(=O)O)CC[C@]3(C)[C@H](CC[C@@H]4[C@@]5(C)CC[C@H](O)C(C)(C)[C@@H]5CC[C@]43C)[C@@H]12 : < 2.00
13. C=C(C)[C@@H]1CC[C@]2(C(=O)N(C(=O)NC3CCCCC3)C3CCCCC3)CC[C@]3(C)[C@H](CC[C@@H]4[C@@]5(C)CC[C@H](O)C(C)(C)[C@@H]5CC[C@]43C)[C@@H]12 : < 2.00
14. C=C(C)[C@@H]1CC[C@]2(C(=O)N(C(=O)NC3CCCCC3)C3CCCCC3)CC[C@]3(C)[C@H](CC[C@@H]4[C@@]5(C)CC[C@H](OC(=O)CCC)C(C)(C)[C@@H]5CC[C@]43C)[C@@H]12 : < 2.00
